The values you see were collected from patent US20200317776A1.

Biological target: T1, cynomolgus monkey TREM2 Fc fusion (entire TREM2 ECD; only one Fc arm fused to TREM2) (cynomolgus monkey, UniProt Q9NZC2 19-174 (human entry))
T1 construct: also called cyno TREM2-Fc
T1 chain: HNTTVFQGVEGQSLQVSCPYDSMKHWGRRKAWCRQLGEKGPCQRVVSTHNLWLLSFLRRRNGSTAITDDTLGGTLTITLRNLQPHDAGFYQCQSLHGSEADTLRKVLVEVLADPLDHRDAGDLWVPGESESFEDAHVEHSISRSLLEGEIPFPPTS
Assay: BLI, Fab, monovalent
Catalogue of binders with associated Kd
The reply should contain only the number, in nM.

AL2p-40 (antibody, IgG1, V domains shown, Fab and IgG formats under one id) VH: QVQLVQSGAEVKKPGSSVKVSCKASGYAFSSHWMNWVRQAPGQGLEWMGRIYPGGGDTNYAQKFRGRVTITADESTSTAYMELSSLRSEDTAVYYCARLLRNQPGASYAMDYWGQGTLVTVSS VL: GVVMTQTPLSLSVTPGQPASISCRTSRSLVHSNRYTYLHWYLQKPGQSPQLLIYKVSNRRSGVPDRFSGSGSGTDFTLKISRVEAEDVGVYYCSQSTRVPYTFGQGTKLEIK	0.37

Exercise: Indicate the recorded Kd value for this binder: AL2p-29 (antibody, V domains shown, Fab and IgG formats under one id) VH: QVQLVQSGAEVKKPGSSVKVSCKASGYAFSSQWMNWVRQAPGQGLEWMGRIYPGDGDTNYAQKFQGRVTITADESTSTAYMELSSLRSEDTAVYYCARLLRNQPGESYAMDYWGQGTLVTVSS VL: GVVMTQTPLSLSVTPGQPASISCRSSRSLVHSNGYTYLHWYLQKPGQSPQLLIYKVSNRFSGVPDRFSGSGSGTDFTLKISRVEAEDVGVYYCSQSTRVPYTFGQGTKLEIK
Solution: 6.47
